Each recorded value in this set is attributed to the supplement of paper PMC10567573.

For each of the variants below, state its protein stability index.
B1: CDC25A (parent)
chain: QLIDPDENKENEAFEFKKPVRPVS

Variants of: B1
Experiment: protein stability index of a GFP-peptide fusion (GPS, HEK-293T) (PSI 1-6); higher = more stable;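 note: lentivirally expressed fusions sorted by FACS into six bins by GFP to DsRed ratio, PSI derived from sequencing read proportions per bin multiplied by bin number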
Conditions: c terminus: a fixed tail appended
One number for each entry.

Consider the following illustrative entries.
Recorded protein stability index (variant E12W ): 3.19

Item: N8I | protein stability index: 4.7

// protein stability index value for N11M : 4.25

Just so you know, measured protein stability index for I3G came out at 4.58

Measured protein stability index, V20W : 3.59

Batch: protein stability index for all items listed.
1. F14K
2. K18A
3. P22V
4. P19I
5. F16K
6. N8H
7. N11E

1. 5
2. 3.7
3. 4.05
4. 4.07
5. 3.99
6. 4.59
7. 4.22
